Target: GST-Ap-NF-kB RHD (Exaiptasia pallida (Aiptasia), UniProt A0A913YAJ5 2-422)
Sequence: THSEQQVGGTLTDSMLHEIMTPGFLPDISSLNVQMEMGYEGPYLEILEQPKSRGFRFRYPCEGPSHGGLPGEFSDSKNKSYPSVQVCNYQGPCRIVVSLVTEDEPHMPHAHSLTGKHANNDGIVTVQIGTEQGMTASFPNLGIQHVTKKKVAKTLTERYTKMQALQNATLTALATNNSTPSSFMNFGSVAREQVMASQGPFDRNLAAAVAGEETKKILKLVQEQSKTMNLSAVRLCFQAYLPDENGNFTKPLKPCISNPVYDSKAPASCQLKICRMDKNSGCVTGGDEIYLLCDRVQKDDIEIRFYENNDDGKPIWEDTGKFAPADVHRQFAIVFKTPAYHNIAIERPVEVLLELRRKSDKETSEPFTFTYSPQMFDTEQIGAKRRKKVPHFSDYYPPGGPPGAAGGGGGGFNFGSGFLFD
Test: protein-binding microarray (PBM); PBM: ~300 nM protein, 6 mM HEPES pH 7.8, 80 mM KCl, 0.5 mM EDTA, 0.5 mM EGTA, 6% glycerol, 35 ng/ul poly-dIdC, 1% milk, 1 h, room temperature; Ap Aiptasia and Nv Nematostella (sea anemones) / Co Capsaspora / Aq Amphimedon (sponge) / Dm Drosophila / Hu human; RHD is the Rel homology domain; high values mean tight binding
Details: dsDNA, one strand shown
ATTRIBUTE_MEASURED: log10 binding signal (log10 of the value in z-score)
# log10 transformed; quantity=binding signal; unit=z-score

Form field, log10 binding signal with GST-Ap-NF-kB RHD (Exaiptasia pallida (Aiptasia), UniProt A0A913YAJ5 2-422), item CCGATTAACATCAGACTTTCCCCTGATGTTAATCGGGTCTTGATTCGCTTGACGCTGCTG : 0.79

GET /values?item= CCGATTAACATCAAAAGCCCCCCTGATGTTAATCGGGTCTTGATTCGCTTGACGCTGCTG &system= GST-Ap-NF-kB RHD (Exaiptasia pallida (Aiptasia), UniProt A0A913YAJ5 2-422) returns log10 binding signal: 0.78

Case CCGATTAACATCAAATTCCCGTATGATGTTAATCGGGTCTTGATTCGCTTGACGCTGCTG , GST-Ap-NF-kB RHD (Exaiptasia pallida (Aiptasia), UniProt A0A913YAJ5 2-422), log10 binding signal recorded as 0.39

Record CCGATTAACATCAGGGGGTTTACTGATGTTAATCGGGTCTTGATTCGCTTGACGCTGCTG has GST-Ap-NF-kB RHD (Exaiptasia pallida (Aiptasia), UniProt A0A913YAJ5 2-422) log10 binding signal equal to 0.90

# lookup: CCGATTAACATCAGGGGACTTCATGATGTTAATCGGGTCTTGATTCGCTTGACGCTGCTG on GST-Ap-NF-kB RHD (Exaiptasia pallida (Aiptasia), UniProt A0A913YAJ5 2-422), log10 binding signal = 0.83

Record CCGATTAACATCATCAGTTTCCCTGATGTTAATCGGGTCTTGATTCGCTTGACGCTGCTG ; system GST-Ap-NF-kB RHD (Exaiptasia pallida (Aiptasia), UniProt A0A913YAJ5 2-422); log10 binding signal = 0.32

Param item: CCGATTAACATCAAAATGCCCCCTGATGTTAATCGGGTCTTGATTCGCTTGACGCTGCTG ; param system: GST-Ap-NF-kB RHD (Exaiptasia pallida (Aiptasia), UniProt A0A913YAJ5 2-422); output log10 binding signal: 0.75

Record CCGATTAACATCACGGACTTCCCTGATGTTAATCGGGTCTTGATTCGCTTGACGCTGCTG ; system GST-Ap-NF-kB RHD (Exaiptasia pallida (Aiptasia), UniProt A0A913YAJ5 2-422); log10 binding signal = 0.41

The reported log10 binding signal value, GST-Ap-NF-kB RHD (Exaiptasia pallida (Aiptasia), UniProt A0A913YAJ5 2-422), for CCGATTAACATCAAAAACTCCCCTGATGTTAATCGGGTCTTGATTCGCTTGACGCTGCTG reads 0.97

# CCGATTAACATCAGGGGATGCACTGATGTTAATCGGGTCTTGATTCGCTTGACGCTGCTG with GST-Ap-NF-kB RHD (Exaiptasia pallida (Aiptasia), UniProt A0A913YAJ5 2-422): log10 binding signal is 0.63

Tested system GST-Ap-NF-kB RHD (Exaiptasia pallida (Aiptasia), UniProt A0A913YAJ5 2-422); log10 binding signal recorded for CCGATTAACATCATATTTCCCCATGATGTTAATCGGGTCTTGATTCGCTTGACGCTGCTG was 0.77

log10 binding signal value, target or system GST-Ap-NF-kB RHD (Exaiptasia pallida (Aiptasia), UniProt A0A913YAJ5 2-422), for CCGATTAACATCAAATCTTCCCCTGATGTTAATCGGGTCTTGATTCGCTTGACGCTGCTG : 0.80

# log10 binding signal measured on GST-Ap-NF-kB RHD (Exaiptasia pallida (Aiptasia), UniProt A0A913YAJ5 2-422) for item CCGATTAACATCACCCAGTTCCCTGATGTTAATCGGGTCTTGATTCGCTTGACGCTGCTG = 0.09

Recorded log10 binding signal for CCGATTAACATCAGGCCATTCCCTGATGTTAATCGGGTCTTGATTCGCTTGACGCTGCTG on GST-Ap-NF-kB RHD (Exaiptasia pallida (Aiptasia), UniProt A0A913YAJ5 2-422) was 0.14

The reported GST-Ap-NF-kB RHD (Exaiptasia pallida (Aiptasia), UniProt A0A913YAJ5 2-422) log10 binding signal of CCGATTAACATCACGGGTTTTCCTGATGTTAATCGGGTCTTGATTCGCTTGACGCTGCTG is 0.46

Observed log10 binding signal on GST-Ap-NF-kB RHD (Exaiptasia pallida (Aiptasia), UniProt A0A913YAJ5 2-422), entry CCGATTAACATCAGGGGTATTACTGATGTTAATCGGGTCTTGATTCGCTTGACGCTGCTG , equals 0.65

Log: GST-Ap-NF-kB RHD (Exaiptasia pallida (Aiptasia), UniProt A0A913YAJ5 2-422), sequence CCGATTAACATCAAAAATACCCTTGATGTTAATCGGGTCTTGATTCGCTTGACGCTGCTG , log10 binding signal = 0.76

// assay GST-Ap-NF-kB RHD (Exaiptasia pallida (Aiptasia), UniProt A0A913YAJ5 2-422), entry CCGATTAACATCAGGAATGCCCCTGATGTTAATCGGGTCTTGATTCGCTTGACGCTGCTG , log10 binding signal value = 0.72

Reading of log10 binding signal for CCGATTAACATCAAGGGGGGTATTGATGTTAATCGGGTCTTGATTCGCTTGACGCTGCTG with GST-Ap-NF-kB RHD (Exaiptasia pallida (Aiptasia), UniProt A0A913YAJ5 2-422): 0.78

With GST-Ap-NF-kB RHD (Exaiptasia pallida (Aiptasia), UniProt A0A913YAJ5 2-422) as the test system, CCGATTAACATCACGGAAATCCCTGATGTTAATCGGGTCTTGATTCGCTTGACGCTGCTG showed log10 binding signal of 0.63

Entry CCGATTAACATCAGCTATTTCCCTGATGTTAATCGGGTCTTGATTCGCTTGACGCTGCTG ; assay system GST-Ap-NF-kB RHD (Exaiptasia pallida (Aiptasia), UniProt A0A913YAJ5 2-422); log10 binding signal recorded at 0.32

Record CCGATTAACATCAGGGGAAATTATGATGTTAATCGGGTCTTGATTCGCTTGACGCTGCTG has GST-Ap-NF-kB RHD (Exaiptasia pallida (Aiptasia), UniProt A0A913YAJ5 2-422) log10 binding signal equal to 0.95

Kindly note: GST-Ap-NF-kB RHD (Exaiptasia pallida (Aiptasia), UniProt A0A913YAJ5 2-422), CCGATTAACATCAGGGAGTTCCATGATGTTAATCGGGTCTTGATTCGCTTGACGCTGCTG , log10 binding signal value reported: 0.44

Entry CCGATTAACATCAAGGGGAAAACTGATGTTAATCGGGTCTTGATTCGCTTGACGCTGCTG : log10 binding signal on GST-Ap-NF-kB RHD (Exaiptasia pallida (Aiptasia), UniProt A0A913YAJ5 2-422) = 0.88

GST-Ap-NF-kB RHD (Exaiptasia pallida (Aiptasia), UniProt A0A913YAJ5 2-422) assay, sequence CCGATTAACATCAGGGAAAGTACTGATGTTAATCGGGTCTTGATTCGCTTGACGCTGCTG , recorded log10 binding signal = 0.60

Fill in: GST-Ap-NF-kB RHD (Exaiptasia pallida (Aiptasia), UniProt A0A913YAJ5 2-422) log10 binding signal for CCGATTAACATCACGGAATGCCCTGATGTTAATCGGGTCTTGATTCGCTTGACGCTGCTG = 0.01

Note to self: log10 binding signal of CCGATTAACATCAGAATGCCCCCTGATGTTAATCGGGTCTTGATTCGCTTGACGCTGCTG with GST-Ap-NF-kB RHD (Exaiptasia pallida (Aiptasia), UniProt A0A913YAJ5 2-422) was 0.68

Param item: CCGATTAACATCAGAAAAATACCTGATGTTAATCGGGTCTTGATTCGCTTGACGCTGCTG ; param system: GST-Ap-NF-kB RHD (Exaiptasia pallida (Aiptasia), UniProt A0A913YAJ5 2-422); output log10 binding signal: 0.12

Per the reported GST-Ap-NF-kB RHD (Exaiptasia pallida (Aiptasia), UniProt A0A913YAJ5 2-422) data, CCGATTAACATCAGAAATCTCCCTGATGTTAATCGGGTCTTGATTCGCTTGACGCTGCTG has log10 binding signal of 0.53

Reported log10 binding signal (GST-Ap-NF-kB RHD (Exaiptasia pallida (Aiptasia), UniProt A0A913YAJ5 2-422)) for entry CCGATTAACATCAGAAAACCCCCTGATGTTAATCGGGTCTTGATTCGCTTGACGCTGCTG is 1.03

For the sequence CCGATTAACATCAGGGGATAAAATGATGTTAATCGGGTCTTGATTCGCTTGACGCTGCTG , the measured log10 binding signal on GST-Ap-NF-kB RHD (Exaiptasia pallida (Aiptasia), UniProt A0A913YAJ5 2-422) was 0.66

CCGATTAACATCAATTTCCCACCTGATGTTAATCGGGTCTTGATTCGCTTGACGCTGCTG tested on GST-Ap-NF-kB RHD (Exaiptasia pallida (Aiptasia), UniProt A0A913YAJ5 2-422) gave log10 binding signal: 0.38

// returns log10 binding signal for CCGATTAACATCAGGATATTCCCTGATGTTAATCGGGTCTTGATTCGCTTGACGCTGCTG with GST-Ap-NF-kB RHD (Exaiptasia pallida (Aiptasia), UniProt A0A913YAJ5 2-422); value = 0.67

Sample CCGATTAACATCACGGGATCTCCTGATGTTAATCGGGTCTTGATTCGCTTGACGCTGCTG , system: GST-Ap-NF-kB RHD (Exaiptasia pallida (Aiptasia), UniProt A0A913YAJ5 2-422). Its log10 binding signal is 0.33

Given the sequence CCGATTAACATCAGGGGGAAATATGATGTTAATCGGGTCTTGATTCGCTTGACGCTGCTG and test system GST-Ap-NF-kB RHD (Exaiptasia pallida (Aiptasia), UniProt A0A913YAJ5 2-422), the measured log10 binding signal is 0.86

// log10 binding signal (GST-Ap-NF-kB RHD (Exaiptasia pallida (Aiptasia), UniProt A0A913YAJ5 2-422)) for CCGATTAACATCAGGGGCCGTAATGATGTTAATCGGGTCTTGATTCGCTTGACGCTGCTG = 0.22
